Measurement target: SFRP-1 (Homo sapiens, UniProt Q8N474)
Sequence (Q8N474 32-314): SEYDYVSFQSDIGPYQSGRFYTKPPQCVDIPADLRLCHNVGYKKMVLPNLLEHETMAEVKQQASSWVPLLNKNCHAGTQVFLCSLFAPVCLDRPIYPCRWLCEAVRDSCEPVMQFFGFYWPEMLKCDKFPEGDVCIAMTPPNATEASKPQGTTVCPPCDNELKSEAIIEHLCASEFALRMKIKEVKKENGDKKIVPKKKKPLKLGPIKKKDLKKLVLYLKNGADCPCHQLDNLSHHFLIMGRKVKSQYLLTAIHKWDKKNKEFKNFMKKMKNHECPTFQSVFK
Assay: Cell-based assay for in vitro measurement of SFRP-1/SARP2 antagonist activity (U2OS cells co-transfected with 16x TCF-tk-Luciferase reporter, Wnt and hSFRP-1)
Assay setup: U2OS, read-out: Fold Induction with SFRP-1, Conc 15 μM; with SFRP-1; fold induction over SFRP-1 control, single dose
Recorded endpoint: fold induction at 15 µM
Reply with the value as a number alone.

Recorded fold induction at 15 µM for Cc1ccc(S(=O)(=O)c2ccccc2)cc1S(=O)(=O)NC1CCN(Cc2ccccc2)CC1 [Example 413] on SFRP-1 (Homo sapiens, UniProt Q8N474) was 2.2

Recorded fold induction at 15 µM for Cc1ccc(S(=O)(=O)c2ccc(F)cc2)cc1S(=O)(=O)NCCC#N [Example 161] on SFRP-1 (Homo sapiens, UniProt Q8N474) was 2.7

Recorded fold induction at 15 µM for CC(C)c1ccc(S(=O)(=O)c2ccc(F)cc2)cc1S(=O)(=O)NCCCn1ccnc1 [Example 319] on SFRP-1 (Homo sapiens, UniProt Q8N474) was 3.5

Recorded fold induction at 15 µM for CCc1ccc(S(=O)(=O)c2ccccc2)cc1S(=O)(=O)NCCc1ccc(S(N)(=O)=O)cc1 [Example 145] on SFRP-1 (Homo sapiens, UniProt Q8N474) was 2.2

Recorded fold induction at 15 µM for CNc1ccc(S(=O)(=O)c2ccc(C(C)C)c(S(=O)(=O)NCCn3ccnc3)c2)cc1 [Example 451] on SFRP-1 (Homo sapiens, UniProt Q8N474) was 3.7

Recorded fold induction at 15 µM for Cc1ccc(S(=O)(=O)c2ccc(N[C@H](C)C3CCCCC3)cc2)cc1S(=O)(=O)NCCCn1ccnc1 [Example 372] on SFRP-1 (Homo sapiens, UniProt Q8N474) was 2.2

Recorded fold induction at 15 µM for Cc1cc(C)c(S(=O)(=O)c2ccccc2)cc1S(=O)(=O)NCC1CCOCC1 [Example 385] on SFRP-1 (Homo sapiens, UniProt Q8N474) was 2.7

----------
Measurement target: SFRP-1 (Homo sapiens, UniProt Q8N474)
Assay: Cell-based assay for in vitro measurement of SFRP-1/SARP2 antagonist activity (U2OS cells co-transfected with 16x TCF-tk-Luciferase reporter, Wnt and hSFRP-1);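 also: U2OS cells co-transfected with a TCF-tk luciferase reporter, a Wnt vector, hSFRP-1 or empty vector and CMV-βgal, luciferase luminescence read in cell lysates alongside βgal activity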
Recorded endpoint: pEC50
To interpret pEC50, take it as minus log10 of a concentration measured in moles per litre.

// pEC50 value for `O=S(=O)(NCCO)c1cc(S(=O)(=O)c2ccccc2)ccc1Cl` : 4.80

// pEC50 value for `COc1ccc(NC(=O)N(C)CCNS(=O)(=O)c2cc(S(=O)(=O)c3ccccc3)ccc2C(F)(F)F)c(OC)c1` : 5.63

// pEC50 value for COC(=O)C1CCC(NS(=O)(=O)c2cc(S(=O)(=O)c3ccccc3)ccc2C(C)C)CC1 (stereo not drawn) : 5.76

// pEC50 value for `O=S(=O)(NC[C@H](O)c1ccccc1)c1cc(S(=O)(=O)c2ccccc2)ccc1C(F)(F)F` : 5.89

// pEC50 value for `CC(C)(C)OC(=O)N1CCC[C@H]1C(=O)N1CCC(NS(=O)(=O)c2cc(S(=O)(=O)c3cccc(C#N)c3)ccc2C(F)(F)F)CC1` : 6.43

// pEC50 value for `O=S(=O)(NC1CCNCC1)c1cc(S(=O)(=O)c2ccc(NCCO)cc2)ccc1C(F)(F)F` : 6.30

// pEC50 value for `CN(CCNS(=O)(=O)c1cc(S(=O)(=O)c2ccccc2)ccc1C(F)(F)F)C(=O)C1CCCCC1` : 5.57

// pEC50 value for O=C(O)CCC(=O)N1CCCC1CCNS(=O)(=O)c1cc(S(=O)(=O)c2ccccc2)ccc1C(F)(F)F (stereo not drawn) : 5.28

// pEC50 value for `CC(=O)Nc1ccc(C(=O)N2CCC(NS(=O)(=O)c3cc(S(=O)(=O)c4ccccc4)ccc3C(F)(F)F)CC2)cc1` : 6.36

// pEC50 value for COc1ccc2c(c1)CC(NS(=O)(=O)c1cc(S(=O)(=O)c3ccccc3)ccc1C(F)(F)F)C2 (stereo not drawn) : 5.58

// pEC50 value for `CN(CCNS(=O)(=O)c1cc(S(=O)(=O)c2ccccc2)ccc1C(F)(F)F)C(=O)N[C@@H]1CCCN(C(=O)OC(C)(C)C)C1` : 6.02

// pEC50 value for `O=C(c1ccc(=O)n(S(=O)(=O)c2cc(S(=O)(=O)c3ccccc3)ccc2C(F)(F)F)c1)N1CCC(NS(=O)(=O)c2cc(S(=O)(=O)c3ccccc3)ccc2C(F)(F)F)CC1` : 6.58
